biological target: Vascular endothelial growth factor receptor 2 (Homo sapiens); assay: Inhibition of KDR (unknown origin) at 0.5 uM relative to control
# inhibition values compiled below

# Chemical structure, Reported property, Result
data = [
    ("CNC(=O)c1cc(Oc2ccc(NC(=O)c3nc(SC)[nH]c3-c3ccc(F)cc3)cc2)ccn1", "inhibition", "95%"),
    ("CNC(=O)c1cc(Oc2ccc(NC(=O)c3nc(C(F)(F)F)sc3-c3ccc(F)cc3)cc2)ccn1", "inhibition", "53%"),
    ("CNC(=O)c1cc(Oc2ccc(NC(=O)c3n[nH]nc3-c3ccc(F)cc3)cc2)ccn1", "inhibition", "25%"),
]

Kindly review the next molecule as well.
// query Fill in: inhibition of "CNC(=O)c1cc(Oc2ccc(NC(=O)c3nc(S(C)(=O)=O)sc3-c3ccc(F)cc3)cc2)ccn1" is ___
// result 27%

###

# inhibition values compiled below
Biological target: UniProt:P54760
Sequence (whole entry): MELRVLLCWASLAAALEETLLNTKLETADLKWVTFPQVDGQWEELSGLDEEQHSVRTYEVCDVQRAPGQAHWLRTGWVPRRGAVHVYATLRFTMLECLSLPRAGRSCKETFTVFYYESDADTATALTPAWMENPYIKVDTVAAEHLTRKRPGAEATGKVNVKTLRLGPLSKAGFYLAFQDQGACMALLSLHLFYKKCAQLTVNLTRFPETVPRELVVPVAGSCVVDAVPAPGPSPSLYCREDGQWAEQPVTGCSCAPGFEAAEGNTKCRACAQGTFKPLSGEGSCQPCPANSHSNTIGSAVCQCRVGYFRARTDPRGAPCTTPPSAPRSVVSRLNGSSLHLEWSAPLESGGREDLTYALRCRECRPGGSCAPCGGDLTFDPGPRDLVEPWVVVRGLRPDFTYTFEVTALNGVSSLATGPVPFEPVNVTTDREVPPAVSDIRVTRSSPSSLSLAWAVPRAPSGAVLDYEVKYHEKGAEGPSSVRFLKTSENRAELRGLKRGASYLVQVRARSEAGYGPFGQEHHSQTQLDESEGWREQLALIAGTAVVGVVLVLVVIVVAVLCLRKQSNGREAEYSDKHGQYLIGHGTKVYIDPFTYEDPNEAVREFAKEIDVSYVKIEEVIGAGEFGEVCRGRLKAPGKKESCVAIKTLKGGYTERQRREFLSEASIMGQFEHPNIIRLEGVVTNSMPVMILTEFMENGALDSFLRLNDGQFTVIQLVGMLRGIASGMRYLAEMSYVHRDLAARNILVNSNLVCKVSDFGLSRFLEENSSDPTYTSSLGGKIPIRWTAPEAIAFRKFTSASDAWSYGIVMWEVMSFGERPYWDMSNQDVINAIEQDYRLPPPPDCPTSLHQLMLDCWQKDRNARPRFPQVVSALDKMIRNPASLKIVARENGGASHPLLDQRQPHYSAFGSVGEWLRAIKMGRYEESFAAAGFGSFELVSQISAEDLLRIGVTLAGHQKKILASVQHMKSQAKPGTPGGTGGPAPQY
Assay: Inhibition of EPHB4 (unknown origin) at 0.5 uM relative to control
Your answer is read as %, so omit the unit and give the number.

// query Fill in: inhibition of "CNC(=O)c1cc(Oc2ccc(NC(=O)c3nc(SC)oc3-c3ccc(F)cc3)cc2)ccn1" is ___
// result 42

// query Fill in: inhibition of "CNC(=O)c1cc(Oc2ccc(NC(=O)c3nc(C(F)(F)F)sc3-c3ccc(F)cc3)cc2)ccn1" is ___
// result 24

// query Fill in: inhibition of "CNC(=O)c1cc(Oc2ccc(NC(=O)c3nc(SC)oc3-c3ccc(F)cc3)cc2F)ccn1" is ___
// result 43

###

biological target: Discoidin domain-containing receptor 2 (Homo sapiens); assay: Inhibition of DDR2 (unknown origin) at 0.5 uM relative to control
Reported property: inhibition (%)
Your answer is read as %, so omit the unit and give the number.

Guide cases for inhibition, answers given:
# Chemical structure, Test system, Unit name, inhibition
records = [
    ("CNC(=O)c1cc(Oc2ccc(NC(=O)c3nc(SC)[nH]c3-c3ccc(F)cc3)cc2)ccn1", "Discoidin domain-containing receptor 2 (Homo sapiens)", "%", 97),
    ("CNC(=O)c1cc(Oc2ccc(NC(=O)c3nc(SC)oc3-c3ccc(F)cc3)cc2F)ccn1", "Discoidin domain-containing receptor 2 (Homo sapiens)", "%", 47),
]

Kindly review the next compound as well.
// query Fill in the recorded inhibition for this compound, with Discoidin domain-containing receptor 2 (Homo sapiens) as test system: "CNC(=O)c1cc(Oc2ccc(NC(=O)c3nc(S(C)(=O)=O)sc3-c3ccc(F)cc3)cc2)ccn1"
// result 61

###

molecular target: Mast/stem cell growth factor receptor Kit (Homo sapiens) (UniProt P10721); assay: Inhibition of KIT (unknown origin) at 0.5 uM relative to control
Sequence (P10721 whole entry): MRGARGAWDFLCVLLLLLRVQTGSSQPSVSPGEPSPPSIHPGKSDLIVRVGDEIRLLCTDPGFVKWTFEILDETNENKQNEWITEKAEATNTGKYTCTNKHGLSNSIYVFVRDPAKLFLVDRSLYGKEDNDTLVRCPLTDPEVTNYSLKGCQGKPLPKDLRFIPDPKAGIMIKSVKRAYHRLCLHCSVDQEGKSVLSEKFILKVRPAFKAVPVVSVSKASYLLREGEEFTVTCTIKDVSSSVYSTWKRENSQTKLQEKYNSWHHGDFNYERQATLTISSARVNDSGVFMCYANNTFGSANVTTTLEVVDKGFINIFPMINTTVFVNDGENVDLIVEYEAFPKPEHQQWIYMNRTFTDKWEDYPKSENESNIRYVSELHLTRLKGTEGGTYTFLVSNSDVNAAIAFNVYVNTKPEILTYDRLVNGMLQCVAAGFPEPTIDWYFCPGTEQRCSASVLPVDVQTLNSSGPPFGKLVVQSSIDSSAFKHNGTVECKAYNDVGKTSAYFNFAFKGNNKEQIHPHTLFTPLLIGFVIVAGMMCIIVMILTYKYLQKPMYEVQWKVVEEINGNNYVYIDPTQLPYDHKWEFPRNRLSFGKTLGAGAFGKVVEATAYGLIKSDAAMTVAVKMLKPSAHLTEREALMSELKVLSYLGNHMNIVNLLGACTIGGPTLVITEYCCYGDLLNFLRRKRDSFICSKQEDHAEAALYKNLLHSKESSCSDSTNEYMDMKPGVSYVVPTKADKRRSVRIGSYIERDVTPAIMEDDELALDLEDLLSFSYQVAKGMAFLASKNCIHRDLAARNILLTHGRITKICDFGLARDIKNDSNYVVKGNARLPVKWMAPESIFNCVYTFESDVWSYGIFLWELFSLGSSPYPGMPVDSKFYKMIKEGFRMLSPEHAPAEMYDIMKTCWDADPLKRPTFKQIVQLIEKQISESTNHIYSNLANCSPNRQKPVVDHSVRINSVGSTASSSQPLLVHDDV
Label yes (1) when inhibition is at or above 50%; otherwise label no (0).

# Chemical structure, Label value
rows = [
    ("CNC(=O)c1cc(Oc2ccc(NC(=O)c3nc(SC)n(CCN(C)C)c3-c3ccc(F)cc3)cc2)ccn1", "no (0)"),
]

// query Threshold query (inhibition >= 50%) on "CNC(=O)c1cc(Oc2ccc(NC(=O)c3nc(NC)sc3-c3ccc(F)cc3)cc2)ccn1"
// result no (0)

// query Threshold query (inhibition >= 50%) on "CNC(=O)c1cc(Oc2ccc(NC(=O)c3nc(C(F)(F)F)sc3-c3ccc(F)cc3)cc2)ccn1"
// result no (0)

// query Threshold query (inhibition >= 50%) on "CNC(=O)c1cc(Oc2ccc(NC(=O)c3n[nH]nc3-c3ccc(F)cc3)cc2)ccn1"
// result yes (1)

// query Threshold query (inhibition >= 50%) on "CNC(=O)c1cc(Oc2ccc(NC(=O)c3nc(S(C)(=O)=O)sc3-c3ccc(F)cc3)cc2)ccn1"
// result no (0)

// query Threshold query (inhibition >= 50%) on "CNC(=O)c1cc(Oc2ccc(NC(=O)c3nc(SC)oc3-c3ccc(F)cc3)cc2)ccn1"
// result no (0)

###

molecular target: Discoidin domain-containing receptor 2 (Homo sapiens); assay: Inhibition of DDR2 (unknown origin) at 0.5 uM relative to control
Label MET when inhibition is at or above 50%; otherwise label NOT MET.

# Chemical structure, Test system, Label value
data = [
    ("CNC(=O)c1cc(Oc2ccc(NC(=O)c3n[nH]nc3-c3ccc(F)cc3)cc2)ccn1", "Discoidin domain-containing receptor 2 (Homo sapiens)", "MET"),
    ("CNC(=O)c1cc(Oc2ccc(NC(=O)c3nc(NC)sc3-c3ccc(F)cc3)cc2)ccn1", "Discoidin domain-containing receptor 2 (Homo sapiens)", "MET"),
    ("CNC(=O)c1cc(Oc2ccc(NC(=O)c3nc(SC)oc3-c3ccc(F)cc3)cc2)ccn1", "Discoidin domain-containing receptor 2 (Homo sapiens)", "MET"),
    ("CSc1nc(C(=O)Nc2ccc(Oc3cc4cnn(C)c4cc3Br)cc2)c(-c2ccc(F)cc2)o1", "Discoidin domain-containing receptor 2 (Homo sapiens)", "NOT MET"),
]

// query Threshold query (inhibition >= 50%) on "CNC(=O)c1cc(Oc2ccc(NC(=O)c3nc(SC)n(CCN(C)C)c3-c3ccc(F)cc3)cc2)ccn1"
// result NOT MET

###

target: Mitogen-activated protein kinase 14 (Homo sapiens); test: Inhibition of p38alpha (unknown origin) at 0.5 uM relative to control
Reported property: inhibition (%)
Your answer is read as %, so omit the unit and give the number.

Guide cases for inhibition, answers given:
# Chemical structure, Test system, inhibition, %
data = [
    ("CSc1nc(C(=O)Nc2ccc(Oc3cc4cnn(C)c4cc3Br)cc2)c(-c2ccc(F)cc2)o1", "Mitogen-activated protein kinase 14 (Homo sapiens)", 25),
    ("CNC(=O)c1cc(Oc2ccc(NC(=O)c3nc(SC)oc3-c3ccc(F)cc3)cc2F)ccn1", "Mitogen-activated protein kinase 14 (Homo sapiens)", 63),
    ("CNC(=O)c1cc(Oc2ccc(NC(=O)c3nc(S(C)(=O)=O)sc3-c3ccc(F)cc3)cc2)ccn1", "Mitogen-activated protein kinase 14 (Homo sapiens)", 15),
]

Kindly review the next molecule as well.
// query Fill in the recorded inhibition for this molecule, with Mitogen-activated protein kinase 14 (Homo sapiens) as test system: "CNC(=O)c1cc(Oc2ccc(NC(=O)c3nc(SC)oc3-c3ccc(F)cc3)cc2)ccn1"
// result 65

###

target: Ephrin type-A receptor 7 (Homo sapiens) (UniProt Q15375); assay: Inhibition of EPHA7 (unknown origin) at 0.5 uM relative to control
Sequence (Q15375 28-998 limits assumed): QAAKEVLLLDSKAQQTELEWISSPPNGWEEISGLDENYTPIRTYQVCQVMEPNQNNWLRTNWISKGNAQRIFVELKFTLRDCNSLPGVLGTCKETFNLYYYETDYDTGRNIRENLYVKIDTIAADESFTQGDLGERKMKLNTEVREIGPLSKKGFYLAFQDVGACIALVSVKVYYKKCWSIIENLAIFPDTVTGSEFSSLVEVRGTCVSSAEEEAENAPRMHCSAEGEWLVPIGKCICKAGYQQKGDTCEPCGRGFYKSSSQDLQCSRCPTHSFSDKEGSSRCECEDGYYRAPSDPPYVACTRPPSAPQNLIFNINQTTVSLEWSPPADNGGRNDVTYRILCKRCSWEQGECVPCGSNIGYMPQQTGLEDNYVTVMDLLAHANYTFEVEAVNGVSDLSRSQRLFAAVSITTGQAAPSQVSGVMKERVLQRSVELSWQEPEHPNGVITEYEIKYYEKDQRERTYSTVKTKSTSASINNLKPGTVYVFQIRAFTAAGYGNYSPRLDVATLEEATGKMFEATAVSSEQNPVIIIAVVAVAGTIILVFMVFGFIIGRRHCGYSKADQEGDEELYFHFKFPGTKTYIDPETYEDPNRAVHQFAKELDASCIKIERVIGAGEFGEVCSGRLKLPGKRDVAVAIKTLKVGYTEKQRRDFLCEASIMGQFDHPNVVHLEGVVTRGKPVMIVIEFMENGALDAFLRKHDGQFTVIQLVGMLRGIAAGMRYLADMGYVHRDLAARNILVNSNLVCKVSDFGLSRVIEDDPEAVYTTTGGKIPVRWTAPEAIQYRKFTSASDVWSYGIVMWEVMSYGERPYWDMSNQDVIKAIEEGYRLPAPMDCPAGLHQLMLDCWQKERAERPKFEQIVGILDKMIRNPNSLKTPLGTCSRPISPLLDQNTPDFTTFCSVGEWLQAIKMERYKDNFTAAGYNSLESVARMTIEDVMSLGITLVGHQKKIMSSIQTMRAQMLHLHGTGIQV
Reported property: inhibition (%)
Your answer is read as %, so omit the unit and give the number.

Guide cases for inhibition, answers given:
# Chemical structure, Test system, Unit name, inhibition
data = [
    ("CNC(=O)c1cc(Oc2ccc(NC(=O)c3nc(SC)oc3-c3ccc(F)cc3)cc2)ccn1", "Ephrin type-A receptor 7 (Homo sapiens) (UniProt Q15375)", "%", 41),
    ("CNC(=O)c1cc(Oc2ccc(NC(=O)c3nc(SC)oc3-c3ccc(F)cc3)cc2F)ccn1", "Ephrin type-A receptor 7 (Homo sapiens) (UniProt Q15375)", "%", 53),
    ("CSc1nc(C(=O)Nc2ccc(Oc3cc4cnn(C)c4cc3Br)cc2)c(-c2ccc(F)cc2)o1", "Ephrin type-A receptor 7 (Homo sapiens) (UniProt Q15375)", "%", 22),
]

Kindly review the next molecule as well.
// query Fill in: inhibition of "CNC(=O)c1cc(Oc2ccc(NC(=O)c3nc(NC)sc3-c3ccc(F)cc3)cc2)ccn1" is ___
// result 60

Data origin: ChEMBL document CHEMBL4806968
